test: NCI Yeast Anticancer Drug Screen. Data for the mec2-1 strain (AID 157); details: S. cerevisiae mec2-1 strain, at 50.0 µM, stronger effect = higher value
About 79,000 compounds went through this panel and 15% of them were active in at least one assay; those are over-represented in the sample as a whole.
We begin with a simple list: items and their reported growth inhibition.
property.measured: growth inhibition (%)

molecule: O=[N+]([O-])c1ccc(Cl)cc1C(Nc1nncs1)Nc1nncs1
property.measured: growth inhibition
numeric.result: 40.6
//
molecule: Cc1nc(Cl)c(C#N)c(C)c1[N+](=O)[O-]
property.measured: growth inhibition
numeric.result: 81.9
//
molecule: COC(=O)C1(Cc2ccc3c(c2)CCC3)Cc2ccc3c(c2C1O)CCC3 (configuration not stated)
property.measured: growth inhibition
numeric.result: 94.3
//
molecule: O=C(/C=C/c1cccnc1)c1cc(Cl)ccc1O
property.measured: growth inhibition
numeric.result: 23.9
//
molecule: NNC(=O)N/N=C(\CC1(O)C(=O)Nc2c(Cl)ccc(Cl)c21)c1ccc(F)cc1 (configuration not stated)
property.measured: growth inhibition
numeric.result: 39.5
//
molecule: C=C(C)C1CC/C(C)=C/CCC2(C)OC2CC/C(CO)=C\C1O (configuration not stated)
property.measured: growth inhibition
numeric.result: 93
//
molecule: Cc1ccccc1C(CC(=O)O)C(C)c1ccccc1 (configuration not stated)
property.measured: growth inhibition
numeric.result: 88.8
//
molecule: OC(c1ccccc1)(c1ccccc1)C1CCCCC1
property.measured: growth inhibition
numeric.result: 1.7
//
molecule: Fc1ccc(CN2COc3c(ccc4cccnc34)C2)cc1
property.measured: growth inhibition
numeric.result: 27.1
//
molecule: O=S1(=O)CCc2ccccc2C(Br)C1Br (configuration not stated)
property.measured: growth inhibition
numeric.result: 99.6
//
molecule: O=C1C=CC(=O)N1Cc1ccccc1
property.measured: growth inhibition
numeric.result: 99.7
//
molecule: C(=C\c1cccc2ccccc12)/c1ccncc1
property.measured: growth inhibition
numeric.result: 99.2

###

Test: NCI Yeast Anticancer Drug Screen. Data for the mec2-1 strain (AID 157)
Conditions: S. cerevisiae mec2-1 strain, at 50.0 µM (retest, dose inferred, filed as 5.0), stronger effect = higher value
Method: Growth inhibition of yeast strains with defined genetic alterations is measured as a screen for potential anti-cancer activity. Selected strains with alterations in DNA damage repair or cell cycle control were exposed to compounds and growth inhibition was measured relative to vehicle treated controls. The strain used in this assay is mec2-1
This is part of a sample that, as a whole, favours compounds with a hit. Of some 79,000 tested, about 15% had one in any assay.
Would you please tag the item Satisfied when its growth inhibition is 80% or above, and Not satisfied when it is below?

compound: COc1ccc(-c2c(C#N)cc(OC)c(OC)c2OC)c(C=O)c1
group.label: Not satisfied
--
compound: Clc1cc[c]([Sn]([O][Sn]([c]2ccc(Cl)cc2)([c]2ccc(Cl)cc2)[c]2ccc(Cl)cc2)([c]2ccc(Cl)cc2)[c]2ccc(Cl)cc2)cc1
group.label: Satisfied
--
compound: CC1(C)OC(C(COC(=O)c2ccc([N+](=O)[O-])cc2)OS(=O)(=O)c2ccc([N+](=O)[O-])cc2)C(C(SCc2ccccc2)SCc2ccccc2)O1 (stereo not given)
group.label: Satisfied
--
compound: CC(C)/C=C1\CCC(CN2CCOCC2)C1=O (stereo not given)
group.label: Not satisfied
--
compound: Cn1cc(CCC(=O)C2C=CC=CC2=NC(=O)CCCl)c2ccccc21 (stereo not given)
group.label: Not satisfied
--
compound: Cc1cc2c(C(C)C)c(O)c(O)c(C=Nc3ccc(C(=O)O)cc3)c2c(O)c1-c1c(C)cc2c(C(C)C)c(O)c(O)c(C=Nc3ccc(C(=O)O)cc3)c2c1O
group.label: Satisfied
--
compound: CCC1C(c2cccc(OC)c2O)c2cc3c(cc2OC1N1CCCC1)OCO3 (stereo not given)
group.label: Not satisfied
--
compound: COc1ccc(OC)c2c1C=CC(Br)=CC2
group.label: Not satisfied
--
compound: CCCCOC(c1ccccc1)N1CCCCC1 (stereo not given)
group.label: Not satisfied
